Taken from PubChem BioAssay.

Can you tell me percent response of DMSO control for the items I'm about to list?
PROTOCOL_DETAILS: TOR pathway RTG branch CIT2 reporter changes – S. cerevisiae, GFP fusion, multiplex flow cytometry, primary screen (AID 1870);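 note: barcoded CIT2-GFP strain pooled with four other GFP strains with rapamycin as positive control; median GFP fluorescence per well over plate mean of DMSO wells so 100% = DMSO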
COND: S. cerevisiae CIT2-GFP expression, 3 h, at 10 µM, stronger effect = higher value
Unit % implied. Number only.

What value of percent response of DMSO control has been recorded for this entry: CN=C(NC#N)NCCSCc1nc[nH]c1C 109

What value of percent response of DMSO control has been recorded for this entry: COc1ccc(CNC(=O)c2c(O)c3cccc4c3n(c2=O)CCC4)cc1 93.9

What value of percent response of DMSO control has been recorded for this entry: c1cnc(N2CCN(Cc3ccc4c(c3)OCO4)CC2)nc1 102

What value of percent response of DMSO control has been recorded for this entry: Nc1nc(Cl)nc2c1ncn2[C@@H]1O[C@H](CO)[C@@H](O)[C@H]1O 101

What value of percent response of DMSO control has been recorded for this entry: CC(C)CC(=O)Nc1ccc2oc(-c3ccncc3)nc2c1 103

What value of percent response of DMSO control has been recorded for this entry: O=C(N/N=C/c1ccc([N+](=O)[O-])o1)c1ccc(O)cc1 112

What value of percent response of DMSO control has been recorded for this entry: Cn1c(=O)c2c(ncn2CCO)n(C)c1=O 116

What value of percent response of DMSO control has been recorded for this entry: CC(C)N(Cc1nccn1C)C(=O)CC1C(=O)NCCN1Cc1ccccc1C(F)(F)F (stereo not drawn) 102

What value of percent response of DMSO control has been recorded for this entry: COc1cccc2c(O)cc(=O)n(C)c12 96.7

What value of percent response of DMSO control has been recorded for this entry: CCCCCC(=O)O[C@]1(C(C)=O)CC[C@H]2[C@@H]3CCC4=CC(=O)CC[C@]4(C)[C@H]3CC[C@@]21C 94.5

What value of percent response of DMSO control has been recorded for this entry: Cn1c(=O)[nH]c(=O)c2c1nc(NCc1ccco1)n2CCCc1ccccc1 100

What value of percent response of DMSO control has been recorded for this entry: O=C(/C=C/c1ccc2c(c1)OCO2)NCc1ccc(F)cc1 95.4

What value of percent response of DMSO control has been recorded for this entry: Nc1[nH]c(=O)ncc1F 87.1

What value of percent response of DMSO control has been recorded for this entry: O=C(O)/C=C/c1cccc(OCc2ccccc2)c1 93.4

What value of percent response of DMSO control has been recorded for this entry: COc1ccccc1C(O)c1nccn1C (stereo not drawn) 106

What value of percent response of DMSO control has been recorded for this entry: CCCCCCCCCC(=O)OCC(O)CO (stereo not drawn) 102

What value of percent response of DMSO control has been recorded for this entry: CCOCC(=O)Nc1nc2ccccc2s1 101

What value of percent response of DMSO control has been recorded for this entry: Cc1ccc(SCC(=O)Nc2nccs2)cc1 98.6

What value of percent response of DMSO control has been recorded for this entry: CC1(C)Cc2ccccc2-c2n[nH]c(=S)n21 101

What value of percent response of DMSO control has been recorded for this entry: COC(=O)c1ccc(NC(=O)c2ccccc2SC)cc1 102

What value of percent response of DMSO control has been recorded for this entry: CCC(=O)Oc1ccc(C(=O)Nc2ccc([N+](=O)[O-])cc2)cc1 90

What value of percent response of DMSO control has been recorded for this entry: C[C@]12C[C@H](O)[C@H]3[C@@H](CCC4=CC(=O)CC[C@@]43C)[C@@H]1CC[C@@H]2C(=O)CO 112

What value of percent response of DMSO control has been recorded for this entry: CCN1CCn2c3c(c4cc(Cl)ccc42)CCCC31 (stereo not drawn) 97.7

What value of percent response of DMSO control has been recorded for this entry: O=C(NO)c1ccccc1O 105

What value of percent response of DMSO control has been recorded for this entry: O=C1CC(c2ccc(OCCCCCOc3ccc(C4CC(=O)NC4=O)cc3)cc2)C(=O)N1 (stereo not drawn) 97.8

What value of percent response of DMSO control has been recorded for this entry: COc1cc(OC)c(-c2nc3cnccc3n2C)cc1OC 115

What value of percent response of DMSO control has been recorded for this entry: COc1cc(C(=O)CCN2CCC(c3ccccc3)C2)cc(OC)c1OC (stereo not drawn) 110

What value of percent response of DMSO control has been recorded for this entry: CC(C)C(=O)Nc1cccnc1 99.6

What value of percent response of DMSO control has been recorded for this entry: O=C(/C=C/c1ccccc1)NC(=O)c1ccccc1O 104

What value of percent response of DMSO control has been recorded for this entry: O=C(O)CCCCCNC(=O)Nc1ccc2c(c1)OCCO2 112

What value of percent response of DMSO control has been recorded for this entry: COc1ccc(CNC(=O)C2CCCN2C)cc1OC (stereo not drawn) 101

What value of percent response of DMSO control has been recorded for this entry: CCOc1ccc(N2C(=O)CC(NCCNc3ccc([N+](=O)[O-])cn3)C2=O)cc1 (stereo not drawn) 106

What value of percent response of DMSO control has been recorded for this entry: CC(C)=CCC/C(C)=C/CC/C(C)=C/CC/C(C)=C/CC1=C(C)C(=O)c2ccccc2C1=O 101

What value of percent response of DMSO control has been recorded for this entry: Fc1ccc(-n2cc(CNCCc3ccccn3)c(-c3ccccc3Cl)n2)cc1 97.7

What value of percent response of DMSO control has been recorded for this entry: COc1cccc(/C=C/C(=O)c2c(O)cc(C)oc2=O)c1O 82.5

What value of percent response of DMSO control has been recorded for this entry: CC(=O)[C@H]1[C@H](C#N)C[C@H]2[C@@H]3CC=C4C[C@@H](O)CC[C@]4(C)[C@H]3CC[C@@]21C 104

What value of percent response of DMSO control has been recorded for this entry: CCn1cc(C(=O)O)c(=O)c2ccc(C)nc21 92.4

What value of percent response of DMSO control has been recorded for this entry: C#CCN1C(=O)C(O)(c2c(C)[nH]c3ccccc23)c2ccccc21 (stereo not drawn) 96

What value of percent response of DMSO control has been recorded for this entry: N#CCC(N)=C(C#N)C#N 111

What value of percent response of DMSO control has been recorded for this entry: CC(C)C1CC(CCNCc2ccc(N(C)C)cc2)(c2ccccc2)CCO1 (stereo not drawn) 118

What value of percent response of DMSO control has been recorded for this entry: CCn1cc(CN2N=C(C)CC2c2ccccc2)c(C)n1 (stereo not drawn) 92.9

What value of percent response of DMSO control has been recorded for this entry: C=C1C2(C(=O)Nc3ccc(SC(F)F)cc3)CCC(C2)C1(C)C (stereo not drawn) 105

What value of percent response of DMSO control has been recorded for this entry: O=C1CC(c2ccc(O)cc2)Oc2cc(O)cc(O)c21 (stereo not drawn) 107

What value of percent response of DMSO control has been recorded for this entry: CCc1cccc2c3c([nH]c12)C(CC)(CC(=O)O)OCC3 (stereo not drawn) 100

What value of percent response of DMSO control has been recorded for this entry: CC12CN3CC(C)(CN(C1)C3c1ccc([N+](=O)[O-])o1)C2 (stereo not drawn) 95.4

What value of percent response of DMSO control has been recorded for this entry: CCOC(=O)C1=C(C)NC(C)=C(C(=O)OC)C1c1cccc(Cl)c1Cl (stereo not drawn) 104

What value of percent response of DMSO control has been recorded for this entry: COc1ccc(NC(=O)N2CCCCC2c2cccnc2)cc1 (stereo not drawn) 99

What value of percent response of DMSO control has been recorded for this entry: Cc1nc(N)nc2c1CCCC2 99.2
